This listing pairs molecules with measured melting point.

For orientation, consider the following solved cases.
[[record]]
molecule = "CC1CC2C3CCC4=CC(=O)C=CC4(C)C34OC4CC2(C)C1(O)C(=O)CO (stereo unspecified)"
result = "238 to 240 °C"

[[record]]
molecule = "CCCC[C@H](NC(=O)[C@H](Cc1ccccc1)NC(=O)OCc1ccccc1)C(=O)CSCc1ccco1"
result = "123 to 124 °C"

[[record]]
molecule = "NC1Cc2cccc3[nH]c(=O)n(c23)C1 (stereo unspecified)"
result = "> 300 °C"


Shifting focus to the molecule that follows.
CCCCCCCCCCCCNC(=O)c1cc(Br)c(OCCn2ccnn2)c(-c2cccc(C(F)(F)F)c2)c1 yielded melting point of 70.5 to 72.5 °C

###

This listing pairs compounds with measured melting point.

For orientation, consider the following solved cases.
[[record]]
compound = "COc1cc(NC(=O)CCCCCN2CC(C)OC(C)C2)c2nccc(C)c2c1 (stereo not drawn)"
reported_endpoint = "melting point"
result = "87 to 90 °C"

[[record]]
compound = "O=C(c1cc2ccc(O)cc2[nH]1)N1CCC(Cc2ccccc2)CC1"
reported_endpoint = "melting point"
result = "214 to 215 °C"

[[record]]
compound = "Oc1ccc2cc(-c3csc(-c4ccccc4)n3)ccc2c1"
reported_endpoint = "melting point"
result = "194 to 197 °C"

[[record]]
compound = "CN(C(=O)COc1nnc(C(F)F)s1)c1ccccc1"
reported_endpoint = "melting point"
result = "67 °C"

[[record]]
compound = "O=C(c1ccccc1)c1ccc(-c2nc(CCl)co2)cc1"
reported_endpoint = "melting point"
result = "138 to 139 °C"

[[record]]
compound = "C=CCOC(=O)c1ccc(OC(=O)c2ccc(O[Si](C)(C)C(C)(C)C)c(C34CC5CC(CC(C5)C3)C4)c2)nc1"
reported_endpoint = "melting point"
result = "130 to 132 °C"

[[record]]
compound = "CCOC(=O)c1cccc2c1C(=O)N(C)Cc1c(C(=O)OCC)ncn1-2"
reported_endpoint = "melting point"
result = "136 to 140 °C"

[[record]]
compound = "Cc1ccc(C(=O)N(C)C)cc1-c1nc(N(C)CCCN(C)C)nc2c1CNC(=O)N2c1c(F)cccc1F"
reported_endpoint = "melting point"
result = "114 to 118 °C"


N#Cc1[nH]c(-c2ccc(Cl)cc2)c(C#N)c1Br yielded melting point of > 225 °C

Cc1ccc(-c2cccc(/C=C/C(=O)Nc3ccc(-c4ccccn4)cc3)c2)cc1 yielded melting point of 220 to 222 °C

CC(C)(C)OC(=O)N1CCC(c2ccc3[nH]c(=O)[nH]c3c2)CC1 yielded melting point of > 250 °C

CC(=O)Nc1nc(-c2ccccc2)c(-c2ccc(=O)n(C(C)C)n2)s1 yielded melting point of 202 to 204 °C

CCc1nc2c(C)cc(C)nc2n1Cc1ccc2oc(-c3ccccc3NS(=O)(=O)C(F)(F)F)c(Br)c2c1 yielded melting point of 90 to 95 °C

###

reported_endpoint: melting point

COC(=O)C1CCC2C3CCC4CC(OC(=O)CCl)CCC4(C)C3C(OC(=O)CCl)CC12C (stereo not drawn) yielded melting point of 149 to 155 °C

CCC(C)n1ncn(-c2ccc(N3CCN(c4ccc(OCC(O)(Cn5cncn5)c5ccc(Cl)cc5Cl)cc4)CC3)cn2)c1=O (stereo not drawn) yielded melting point of 144 to 145 °C

Cc1ccc(NC(=O)N(C)Cc2cccc3c2CN(C2CCC(=O)NC2=O)C3=O)cc1C (stereo not drawn) yielded melting point of 228 to 230 °C

CCOC(=O)Cc1cnc(C(C)(C)C)nc1Cl yielded melting point of 42 to 44 °C

NS(=O)(=O)c1ccc(-n2c(-c3ccccc3)csc2=S)cc1 yielded melting point of 235 °C

COCCOc1cc(Oc2ccc(C(F)(F)F)cn2)ccc1CCCOc1cc(CCC(=O)O)n(C)n1 yielded melting point of 110 °C

N#Cc1nn(-c2c(Cl)cc(C(F)(F)F)cc2Cl)c(N)c1C1C=CCCCC1 (stereo not drawn) yielded melting point of 158 to 159 °C

CCCC(=O)CS(N)(=O)=O yielded melting point of 117 °C

CCCCCCSc1nn2c(=O)c(Cl)c(F)nc2s1 yielded melting point of 105 to 111 °C

c1ccc(CCCn2c(-c3ccc4c(c3)OCO4)nc3ccccc32)cc1 yielded melting point of 99.8 to 100 °C

COc1cc(C)c(NC(=O)CC(C)(C)C)c(C)c1Cc1ccc(C(C)C)cc1 yielded melting point of 181 to 182 °C

Oc1nn(-c2ccccc2)c2ccccc12 yielded melting point of 209 to 211 °C

CCOC(=O)C=C(c1ccccc1)c1cc([N+](=O)[O-])ccc1NS(=O)(=O)c1ccc(OC)cc1 yielded melting point of 126 to 129 °C

O=C1COc2cc(F)c(F)cc2N1 yielded melting point of 214 to 219 °C

COc1ccc(Cc2cnc(NCCSCc3nc[nH]c3C)[nH]c2=O)cn1 yielded melting point of 197 to 198 °C

COc1cc(COc2nn(CCO)cc2C=O)ccc1OCc1nc(-c2ccco2)oc1C yielded melting point of 149 to 150 °C

Cc1[nH]c2ccccc2c1C[C@@H](N)C(=O)O yielded melting point of 244 to 246 °C

Clc1ccc2onc(Cl)c2c1 yielded melting point of 43 to 44 °C

###

This listing pairs compounds with measured melting point.

[[record]]
chemical_string = "Cc1c(CBr)cccc1C(F)(F)C(F)(F)c1ccccc1"
reported_endpoint = "melting point"
result = "67 to 71 °C"


O=C(NCc1cccc([N+](=O)[O-])c1)c1[nH]c2ccc(Cl)cc2c1S(=O)(=O)c1ccccc1 yielded melting point of 253 to 254 °C

CCOCCOc1ccc(-c2ccc3c(c2)C=C(C(=O)Nc2ccc(CN(C)C4CCOCC4)cc2)CCS3(=O)=O)cc1 yielded melting point of 215 to 217 °C

###

This listing pairs compounds with measured melting point.

For orientation, consider the following solved cases.
[[record]]
compound = "O=c1[nH]ncc2[nH]c(-c3ccc(OC(F)F)c4c3C=CC(C3CC3)O4)cc12 (stereo unspecified)"
result = "232 to 242 °C"

[[record]]
compound = "C/C(=C(\\C#N)C(N)=S)N1CCC(O)CC1"
result = "160 to 163 °C"

[[record]]
compound = "C[Si](C)(C)C#Cc1ccc(Oc2ccc(C(=O)C(=O)c3cccc(C(=O)C(=O)c4ccc(Oc5ccc(C#C[Si](C)(C)C)cc5)cc4)c3)cc2)cc1"
result = "110 to 111 °C"

[[record]]
compound = "CSc1ncc(C(=O)Cc2c(Cl)cncc2Cl)cc1OC(C)C"
result = "124 to 125 °C"


CC(=O)N1CCc2[nH]c3cc(-n4ccc(OCc5ccccc5)cc4=O)ccc3c2CC1 yielded melting point of 250 to 254 °C

###

This listing pairs compounds with measured melting point.

For orientation, consider the following solved cases.
[[record]]
compound = "Cc1nc(NC(=O)c2cnn3c(C(F)(F)F)cc(-c4ccc(C(F)(F)F)c(OCC(F)(F)F)c4)nc23)sc1S(=O)(=O)NC(C)(C)CO"
result = "275 °C"

[[record]]
compound = "CC1(C)COc2ccc(OS(C)(=O)=O)cc21"
result = "75 to 77 °C"

[[record]]
compound = "O=C1NCc2ccccc2N1C1CCNCC1"
result = "153 to 155 °C"


COc1cc(C=CC(=O)Nc2cnc3ccccc3c2-c2ccccc2)cc(OC)c1OC(C)=O yielded melting point of 247 to 248 °C

CCOC(=O)CC(O)CCCCCNC(=O)OCc1ccccc1 (configuration not stated) yielded melting point of 47 to 50 °C

COc1cc(N)c(Cl)cc1-c1nc(-c2cccnc2)c(C)[nH]1 yielded melting point of 178 to 180 °C

O=C(Nc1ccc2nc(CN3CCCC3)ccc2c1)c1ccc(-c2ccc(Cl)cc2)nc1 yielded melting point of 225 to 227 °C

COc1cc2c(=O)n(CCCN3CCOCC3)c3c4ccccc4[nH]c(=O)c3c2cc1OC yielded melting point of 250 to 252 °C

###

This listing pairs molecules with measured melting point.

[[record]]
molecule = "CCc1cc(C)cc(CC)c1C1C(=O)CC(CC(C)S(=O)(=O)CC)CC1=O (stereo not drawn)"
result = "62 to 65 °C"

[[record]]
molecule = "COc1ccc(-c2cncn2-c2ccc(S(C)(=O)=O)cc2)cc1"
result = "185 to 187 °C"

[[record]]
molecule = "COC(=O)CCn1c(=O)n(CCN2CCN(c3ccccc3OC)CC2)c(=O)c2c(C)scc21"
result = "127 to 128 °C"

[[record]]
molecule = "CC(=O)Nc1ccc2c(c1)OCc1cc([N+](=O)[O-])ccc1C2=O"
result = "171 °C"

[[record]]
molecule = "O=C1CCC(N2Cc3c(OCc4ccccc4CN4CCOCC4)cccc3C2=O)C(=O)N1 (stereo not drawn)"
result = "188 to 190 °C"

[[record]]
molecule = "N#CC(=CNc1ccccc1)Cc1ccc2ccccc2c1"
result = "148 to 153 °C"


Cc1ccc(S(=O)(=O)N2CCN(S(=O)(=O)c3ccc(C)cc3)CC3CCC(CN(S(=O)(=O)c4ccc(C)cc4)CC2)O3)cc1 yielded melting point of 175 to 178 °C

CCCCS(=O)(=O)Nc1ccccc1OCc1ccc2ccccc2n1 yielded melting point of 93 to 94 °C

COc1ccc(C(OC2CCN(CC(=O)O)CC2)c2ccccc2)cc1 (stereo not drawn) yielded melting point of 84 to 85 °C

O=S(Cc1ccccn1)c1ccc(F)cc1 (stereo not drawn) yielded melting point of 92 to 94 °C

COc1ccc(CNC(=O)c2ccc3ccccc3c2Br)cc1 yielded melting point of 155 °C

CC(C)CNC(=O)c1cccnc1Oc1cccc(Cl)c1 yielded melting point of 86 to 87 °C

C[C@@H](Nc1ncnc2[nH]c(-c3ccc(CN4CCN(C)CC4)cc3)cc12)c1ccccc1 yielded melting point of 248 to 250 °C

COc1cc(Br)c(OC(=O)c2ccc(OC)c(F)c2)c(NC(=O)c2ccc(OC)c(F)c2)c1 yielded melting point of 184 to 186 °C

CC(C)N1Cc2c(F)cccc2N(CCN2CC=C(c3c[nH]c4cc(F)ccc34)CC2)S1(=O)=O yielded melting point of 107 to 109 °C

COC(=O)C1=C(Cl)/C(=N/OS(=O)(=O)c2ccc(C)cc2)CC(c2ccc(Cl)c(OC)c2F)N1 (stereo not drawn) yielded melting point of 62 to 64 °C

O=C1NCc2c1cc1ccc3c(c1c2-c1ccccc1)OCO3 yielded melting point of 290 to 292 °C

CC(C)(CO)Oc1ccc(-c2ccc(N3CCCCC3)cc2)cc1 yielded melting point of 158 to 160 °C
